# PROCEDURE_SUMMARY: in vivo
# CONDITION: dog, plasma, po, 0.3 mg/kg
MEASUREMENT_LABEL: AUC (µM·h)

I: CCOCCOCCOCCCCCNC(=O)NC12CC3CC(CC(C3)C1)C2
II: O=C(O)CCCCCCCCCCCNC(=O)NC12CC3CC(CC(C3)C1)C2
INPUT: Pick the one with the larger AUC: I vs II State your choice using its label.
OUTPUT: I
(I: 0.317 µM·h, II: 0.0667 µM·h)

###

# Test system: Liver microsomes
# CONDITION: human
MEASUREMENT_LABEL: Stability (%)

O=C(NC12CC3CC(CC(C3)C1)C2)N[C@H]1CC[C@@H](OCc2ccc(Br)cc2)CC1 20
O=C(NC12CC3CC(CC(C3)C1)C2)N[C@H]1CC[C@@H](Oc2ccc([N+](=O)[O-])cc2)CC1 15

1: O=C(NC12CC3CC(CC(C3)C1)C2)N[C@H]1CC[C@@H](Oc2ccc(F)cc2)CC1
2: O=C(NC12CC3CC(CC(C3)C1)C2)N[C@H]1CC[C@H](OCc2ccccc2)CC1
3: COc1ccc(O[C@H]2CC[C@@H](NC(=O)NC34CC5CC(CC(C5)C3)C4)CC2)cc1
4: O=C(NC12CC3CC(CC(C3)C1)C2)N[C@H]1CC[C@H](OCc2ccc(Br)cc2)CC1
INPUT: Arrange items by their Stability values in increasing order. API: response body holds the labels in the requested order.
OUTPUT: 3, 1, 4, 2
(3: 14%, 1: 21%, 4: 41%, 2: 67%)

a: O=C(NC12CC3CC(CC(C3)C1)C2)N[C@H]1CC[C@@H](OCc2c(F)cccc2F)CC1
b: Cc1ccccc1CO[C@H]1CC[C@H](NC(=O)NC23CC4CC(CC(C4)C2)C3)CC1
c: CC(C)Oc1cc(F)c(CO[C@H]2CC[C@H](NC(=O)NC34CC5CC(CC(C5)C3)C4)CC2)c(F)c1
INPUT: Sort the molecules on Stability; start with the lowest figure. Please express your ranking as an ordered list of the labels.
OUTPUT: a, c, b

a: O=C(NC12CC3CC(CC(C3)C1)C2)N[C@H]1CC[C@H](Oc2ccc(Br)cc2)CC1
b: Cc1ccccc1CO[C@H]1CC[C@@H](NC(=O)NC23CC4CC(CC(C4)C2)C3)CC1
INPUT: Endpoint returns whichever of a and b has the numerically higher Stability. Output the label that corresponds to your choice.
OUTPUT: a

1: O=C(NC12CC3CC(CC(C3)C1)C2)N[C@H]1CC[C@@H](OCc2c(Cl)cccc2Cl)CC1
2: O=C(NC12CC3CC(CC(C3)C1)C2)N[C@H]1CC[C@H](Oc2ccc(F)cc2)CC1
INPUT: Given 1 and 2 , report the one with the higher recorded Stability. Lab note: record the label of whichever item you select.
OUTPUT: 2
